For each record, write down the corresponding pIC50.
Biological target: human full-length MKNK1 (Homo sapiens, UniProt Q9BUB5, T385D)
Sequence (Q9BUB5 1-424 isoform Q9BUB5-2 T344D): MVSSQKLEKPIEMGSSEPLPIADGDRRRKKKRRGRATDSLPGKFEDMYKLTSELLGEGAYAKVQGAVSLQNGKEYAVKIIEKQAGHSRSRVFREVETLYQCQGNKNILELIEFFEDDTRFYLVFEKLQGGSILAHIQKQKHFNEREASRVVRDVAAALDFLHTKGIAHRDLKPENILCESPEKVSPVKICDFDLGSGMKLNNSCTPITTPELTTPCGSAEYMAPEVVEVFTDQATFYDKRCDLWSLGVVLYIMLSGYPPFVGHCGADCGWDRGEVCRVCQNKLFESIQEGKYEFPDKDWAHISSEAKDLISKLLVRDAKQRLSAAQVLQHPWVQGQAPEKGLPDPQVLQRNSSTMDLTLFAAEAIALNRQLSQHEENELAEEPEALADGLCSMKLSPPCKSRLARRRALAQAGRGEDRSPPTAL
Experiment: MKNK1 kinase high ATP assay (TR-FRET)
Conditions: high ATP (2 mM), 15 min preincubation with enzyme, GST-MKNK1 (T344D)
Numbers only, as −log10 of the molar value.

Below are 4 molecules. Give each one its pIC50.
1. CCOC(=O)C1CCc2[nH]c3ncnc(Nc4ccc5[nH]ncc5c4)c3c2C1 (racemic)
2. Cc1nc2c(Nc3ncnc4[nH]c5c(c34)CC(C(=O)NCCCS(C)(=O)=O)CC5)cccc2[nH]1 (racemic)
3. CS(=O)(=O)CCCNC(=O)C1CCc2[nH]c3ncnc(Nc4cccc5c4OC(F)(F)O5)c3c2C1 (racemic)
4. CS(=O)(=O)CCCNC(=O)C1CCc2[nH]c3ncnc(Nc4ccc(S(N)(=O)=O)cc4)c3c2C1 (racemic)

Outgoing:
[7.74, 5.57, 5.87, 5.55]

Below are 3 molecules. Give each one its pIC50.
1. O=C(NC1CC1)C1CCc2[nH]c3ncnc(Nc4ccccc4N4CCOCC4)c3c2C1 (racemic)
2. CC(C)Oc1cc2[nH]ncc2cc1Nc1ncnc2[nH]c3c(c12)CCCC3
3. c1nc(Nc2ccc3[nH]ncc3c2)c2c3c([nH]c2n1)CCC1(C3)OCCO1

Outgoing:
1: 6.76; 2: 8.30; 3: 7.29

----------
Target: human full-length MKNK1 (Homo sapiens, UniProt Q9BUB5, T385D)
Assay: MKNK1 kinase high ATP assay (TR-FRET)
Conditions: high ATP (2 mM), 15 min preincubation with enzyme, GST-MKNK1 (T344D)
MEASURE NAME: log10 IC50 (log10 of the value in nM)
Answers are given as log10 of IC50 in nM.

Known log10 IC50 results, listed for orientation:
COMPOUND	log10 IC50
CCOC(=O)CNC(=O)C1CCc2[nH]c3ncnc(Nc4ccc(F)cc4OCCO)c3c2C1 (racemic) [Example 228]	1.71
COc1ccc(F)cc1Nc1ncnc2[nH]c3c(c12)CC(C(=O)NC(C)C)CC3 (racemic) [Example 195]	2.09
CS(=O)(=O)CCCNC(=O)C1CCc2[nH]c3ncnc(Nc4ccccc4N4CCOCC4)c3c2C1 (racemic) [Example 30]	1.72
CC(C)NC(=O)C1CCc2[nH]c3ncnc(Nc4ccc5[nH]ncc5c4)c3c2C1 (racemic) [Example 227]	1.38
COc1ccc(C(F)(F)F)cc1Nc1ncnc2[nH]c3c(c12)CC(C(=O)NC(C)C)CC3 (racemic) [Example 213]	2.01
CSc1cc2c(cc1Nc1ncnc3[nH]c4c(c13)CC(C(=O)NCCCS(C)(=O)=O)CC4)OCCO2 (racemic) [Example 65]	4.12

Form field log10 IC50, entry CCNC(=O)C1CCc2[nH]c3ncnc(Nc4ccccc4N4CCOCC4)c3c2C1 (racemic) [Example 201] : 2.33

----------
For each record, write down the corresponding IC50.
Target: human full-length MKNK1 (Homo sapiens, UniProt Q9BUB5, T385D)
Test: MKNK1 kinase high ATP assay (TR-FRET)
Details: high ATP (2 mM), 15 min preincubation with enzyme, GST-MKNK1 (T344D)
Numbers only, in nM.

Known IC50 results, listed for orientation:
COMPOUND	IC50 / nM
COc1cc2[nH]ncc2cc1Nc1ncnc2[nH]c3c(c12)CC(C(=O)NCc1ccccc1)CC3 (racemic)	1
COc1cc2[nH]c(=O)sc2cc1Nc1ncnc2[nH]c3c(c12)CC(F)(F)CC3	10

Form field IC50, entry CC(C)Oc1ccc(Br)cc1Nc1ncnc2[nH]c3c(c12)CCCC3 : 6270
